# System: mitochondria or chloroplast of Chlamydomonas reinhardtii
# protocol_text: Subcellular localization of Venus reporter by epifluorescence microscopy (manual targeting assignment)
# Type: cell-based
# setup_conditions: manual targeting assignment of the Venus reporter construct in Chlamydomonas: Neither / Mitochondria / Chloroplast / Dual, (partial) = partial targeting
measurement_label: Localisation

Known results for sequences:
* MRYYGNGVSCNRRGCSVDWGRAIGIIGNNAAANLTTGGRAGWRGSVRRAQLQVVASSRKQMGRWRSIDAGVDASDDQ [EHF.R.c] | Chloroplast
* MQVTMKSSAVSGQRVGRIPVRAIRRAGAAIGRGLRAINIASTAHDVYSFFRPRHRRR [c.SIM.R] | Chloroplast
* MQVTMKSSAVSGQRVRYYGNGVSCNRRGCSVDWGRAIGIIGNNAAANLTTGGRAGWRGSVRRAQLQVVASSRKQMGRWRSIDAGVDASDDQ [c.EHF.R.c] | Chloroplast
* MQVTMKSSAVSGQRVMGWIRDFGRRIERVGQHTRDATIQTIAVAQQAANVAATLRGSVRRAQLQVVASSRKQMGRWRSIDAGVDASDDQ [c.S1D.R.c] | Chloroplast
* MRYYGNGVSCNRRGCSVDWGRAIGIIGNNAAANLTTGGRAGWRGLTQTAESFRGVSSQFFDAPNGPSVKQVLIEDEW [EHF.R.m] | Chloroplast

We next turn to a different sequence, shown below.
Query :: Name the recorded Localisation of the sequence listed here: MQVTMKSSAVSGQRVSFLTTFRDLAIRAARSAGQSVLSTLSCRLSNTCLTQTAESFRGVSSQFFDAPNGPSVKQVLIEDEW [c.B2I.R.m]
Result :: Dual

====

# Test system: mitochondria or chloroplast of Chlamydomonas reinhardtii
# protocol_text: Subcellular localization of Venus reporter by epifluorescence microscopy (manual targeting assignment)
# Assay type: cell-based
# setup_conditions: manual targeting assignment of the Venus reporter construct in Chlamydomonas: Neither / Mitochondria / Chloroplast / Dual, (partial) = partial targeting
measurement_label: Localisation

- MLKRVGQSLVPFARAG [MH.R]: Mitochondria (partial)
- MGLLLDTLRGAARDIAGIALERLRCRITGCRP [R2G.R]: Mitochondria (partial)
- MGLLLDTLRGAARDIAGIALERLRCRITGCRPSVRRAQLQVVASSRKQMGRWRSIDAGVDASDDQ [R2G.R.c]: Neither
- MLKKVGQSLVPFAKAG [MH.K]: Neither
- MDEVNNDNCRIRFRGDISSESDRMNINY [RP2.R]: Neither
- MQVTMKSSAVSGQRVGGARVATR [c.CH.R]: Neither
- MQVTMKSSAVSGQRVDEVNNDNCRIRFRGDISSESDRMNINY [c.RP2.R]: Neither

Let's switch to this sequence now.
Query :: Give Localisation for the following sequence: MALWRTMLRRLGTMALHAGRAAFGAAADTISQ [DDM.R]
Result :: Neither

====

# Tested on: mitochondria or chloroplast of Chlamydomonas reinhardtii
# protocol_text: Subcellular localization of Venus reporter by epifluorescence microscopy (manual targeting assignment)
# Format: cell-based
# setup_conditions: manual targeting assignment of the Venus reporter construct in Chlamydomonas: Neither / Mitochondria / Chloroplast / Dual, (partial) = partial targeting
measurement_label: Localisation

Some solved cases for reference:
- MQVTMKSSAVSGQRVALWRTMLRRLGTMALHAGRAAFGAAADTISQLTQTAESFRGVSSQFFDAPNGPSVKQVLIEDEW [c.DDM.R.m]: Neither
- MQVTMKSSAVSGQRVSFLTTFRDLAIRAARSAGQSVLSTLSCRLSNTC [c.B2I.R]: Mitochondria (partial)
- MQVTMKSSAVSGQRVMLKRVGQSLVPFARAGSVRRAQLQVVASSRKQMGRWRSIDAGVDASDDQ [c.MH.R.c]: Chloroplast
- MDEVNNDNCRIRFRGDISSESDRMNINYLTQTAESFRGVSSQFFDAPNGPSVKQVLIEDEW [RP2.R.m]: Neither
- MGGARVATRLTQTAESFRGVSSQFFDAPNGPSVKQVLIEDEW [CH.R.m]: Neither
- MSFLTTFRDLAIRAARSAGQSVLSTLSCRLSNTC [B2I.R]: Mitochondria
- MALWRTMLRRLGTMALHAGRAAFGAAADTISQSVRRAQLQVVASSRKQMGRWRSIDAGVDASDDQ [DDM.R.c]: Neither
- MQVTMKSSAVSGQRVDEVNNDNCRIRFRGDISSESDRMNINYLTQTAESFRGVSSQFFDAPNGPSVKQVLIEDEW [c.RP2.R.m]: Neither
- MSFLTTFRDLAIRAARSAGQSVLSTLSCRLSNTCLTQTAESFRGVSSQFFDAPNGPSVKQVLIEDEW [B2I.R.m]: Mitochondria
- MLKRVGQSLVPFARAGLTQTAESFRGVSSQFFDAPNGPSVKQVLIEDEW [MH.R.m]: Mitochondria (partial)

Query :: # lookup: mitochondria or chloroplast of Chlamydomonas reinhardtii Localisation, key = MALWRTMLRRLGTMALHAGRAAFGAAADTISQLTQTAESFRGVSSQFFDAPNGPSVKQVLIEDEW [DDM.R.m]
Result :: Neither

Query :: Tell me Localisation of MQVTMKSSAVSGQRVLTQTAESFRGVSSQFFDAPNGPSVKQVLIEDEW [c.-.m] when tested on mitochondria or chloroplast of Chlamydomonas reinhardtii.
Result :: Neither

Query :: Provide mitochondria or chloroplast of Chlamydomonas reinhardtii Localisation reading for MQVTMKSSAVSGQKVGGAKVATKLTQTAESFRGVSSQFFDAPNGPSVKQVLIEDEW [c.CH.K.m] .
Result :: Neither

Query :: // fetch Localisation; item: MQVTMKSSAVSGQRVGGARVATRSVRRAQLQVVASSRKQMGRWRSIDAGVDASDDQ [c.CH.R.c] ; system: mitochondria or chloroplast of Chlamydomonas reinhardtii
Result :: Chloroplast

Query :: Tell me its Localisation on mitochondria or chloroplast of Chlamydomonas reinhardtii: MGGAKVATK [CH.K]
Result :: Neither

Query :: Please respond with reported Localisation (system mitochondria or chloroplast of Chlamydomonas reinhardtii) for MRYYGNGVSCNRRGCSVDWGRAIGIIGNNAAANLTTGGRAGWRG [EHF.R] .
Result :: Neither

Query :: Lab note: record Localisation of MQVTMKSSAVSGQRVGRIPVRAIRRAGAAIGRGLRAINIASTAHDVYSFFRPRHRRRSVRRAQLQVVASSRKQMGRWRSIDAGVDASDDQ [c.SIM.R.c] tested on mitochondria or chloroplast of Chlamydomonas reinhardtii.
Result :: Chloroplast
